System: P. aeruginosa (ATCC 9027)
procedure-text: Antimicrobial susceptibility assay (MIC/MBC)
Type: cell-based, Pseudomonas aeruginosa
Residues, ends and D or L forms follow the SMILES beside them.
The compounds listed here are annotated with their MBC.
Unit µM implied. Number only.

Recorded results for 2 compounds are shown here.
CC[C@H](C)[C@H](NC(=O)[C@H](CCCNC(=N)N)NC(=O)[C@@H]1CCCN1C(=O)[C@H](CC(C)C)NC(=O)[C@@H](N)Cc1ccccc1)C(=O)N[C@@H](CC(C)C)C(=O)N[C@@H](CCCNC(=N)N)C(=O)N[C@@H](CCCCN)C(=O)N[C@H](C(=O)N[C@H](C(=O)N[C@H](C(=O)N[C@@H](C)C(=O)N[C@@H](CC(C)C)C(N)=O)[C@@H](C)O)C(C)C)[C@@H](C)CC [Crabrolin-4R, FLPRILRKIVTAL-NH2] (H-FLPRILRKIVTAL-NH2) ... 16
CC[C@H](C)[C@H](NC(=O)[C@H](CCCNC(=N)N)NC(=O)[C@@H]1CCCN1C(=O)[C@H](CC(C)C)NC(=O)[C@@H](N)Cc1ccccc1)C(=O)N[C@@H](CC(C)C)C(=O)N[C@@H](CCCNC(=N)N)C(=O)N[C@@H](CCCCN)C(=O)N[C@H](C(=O)N[C@H](C(=O)N[C@@H](CCCNC(=N)N)C(=O)N[C@@H](C)C(=O)N[C@@H](CC(C)C)C(N)=O)C(C)C)[C@@H](C)CC [Crabrolin-TR, FLPRILRKIVRAL-NH2] (H-FLPRILRKIVRAL-NH2) ... 8

Q: Query MBC for CC[C@H](C)[C@H](NC(=O)[C@H](CCCNC(=N)N)NC(=O)[C@@H]1CCCN1C(=O)[C@H](CC(C)C)NC(=O)[C@@H](N)CCCNC(=N)N)C(=O)N[C@@H](CC(C)C)C(=O)N[C@@H](CCCNC(=N)N)C(=O)N[C@@H](CCCCN)C(=O)N[C@H](C(=O)N[C@H](C(=O)N[C@@H](CCCNC(=N)N)C(=O)N[C@@H](CCCNC(=N)N)C(=O)N[C@@H](CC(C)C)C(N)=O)C(C)C)[C@@H](C)CC [Crabrolin-AR, RLPRILRKIVRRL-NH2] (H-RLPRILRKIVRRL-NH2)
Ans: 16

---

Tested on: human glioblastoma astrocytoma U251MG
procedure-text: Anti-proliferative assay (MTT)
Assay type: cell-based
measurement-context: 24 h
Residues, ends and D or L forms follow the SMILES beside them.
endpoint-label: IC50 (µM)
Report the figure in µM without appending any unit label.

A selection of reference data follows.
CC[C@H](C)[C@H](NC(=O)[C@H](CCCNC(=N)N)NC(=O)[C@@H]1CCCN1C(=O)[C@H](CC(C)C)NC(=O)[C@@H](N)Cc1ccccc1)C(=O)N[C@@H](CC(C)C)C(=O)N[C@@H](CCCNC(=N)N)C(=O)N[C@@H](CCCCN)C(=O)N[C@H](C(=O)N[C@H](C(=O)N[C@@H](CCCNC(=N)N)C(=O)N[C@@H](C)C(=O)N[C@@H](CC(C)C)C(N)=O)C(C)C)[C@@H](C)CC [Crabrolin-TR, FLPRILRKIVRAL-NH2] (H-FLPRILRKIVRAL-NH2) ... 12.4
CC[C@H](C)[C@H](NC(=O)[C@H](CC(C)C)NC(=O)[C@@H]1CCCN1C(=O)[C@H](CC(C)C)NC(=O)[C@@H](N)Cc1ccccc1)C(=O)N[C@@H](CC(C)C)C(=O)N[C@@H](CCCNC(=N)N)C(=O)N[C@@H](CCCCN)C(=O)N[C@H](C(=O)N[C@H](C(=O)N[C@H](C(=O)N[C@@H](C)C(=O)N[C@@H](CC(C)C)C(N)=O)[C@@H](C)O)C(C)C)[C@@H](C)CC [Crabrolin, FLPLILRKIVTAL-NH2] (H-FLPLILRKIVTAL-NH2) ... 20.1
CC[C@H](C)[C@H](NC(=O)[C@H](CCCNC(=N)N)NC(=O)[C@@H]1CCCN1C(=O)[C@H](CC(C)C)NC(=O)[C@@H](N)Cc1ccccc1)C(=O)N[C@@H](CC(C)C)C(=O)N[C@@H](CCCNC(=N)N)C(=O)N[C@@H](CCCCN)C(=O)N[C@H](C(=O)N[C@H](C(=O)N[C@H](C(=O)N[C@@H](C)C(=O)N[C@@H](CC(C)C)C(N)=O)[C@@H](C)O)C(C)C)[C@@H](C)CC [Crabrolin-4R, FLPRILRKIVTAL-NH2] (H-FLPRILRKIVTAL-NH2) ... 25.1

Q: Provide one value: measured IC50 of CC[C@H](C)[C@H](NC(=O)[C@H](CCCNC(=N)N)NC(=O)[C@@H]1CCCN1C(=O)[C@H](CC(C)C)NC(=O)[C@@H](N)CCCNC(=N)N)C(=O)N[C@@H](CC(C)C)C(=O)N[C@@H](CCCNC(=N)N)C(=O)N[C@@H](CCCCN)C(=O)N[C@H](C(=O)N[C@H](C(=O)N[C@@H](CCCNC(=N)N)C(=O)N[C@@H](C)C(=O)N[C@@H](CC(C)C)C(N)=O)C(C)C)[C@@H](C)CC [Crabrolin-FR, RLPRILRKIVRAL-NH2] (H-RLPRILRKIVRAL-NH2)
Ans: 62.2

Q: Please give the documented IC50 of CC[C@H](C)[C@H](NC(=O)[C@H](CCCCN)NC(=O)[C@@H]1CCCN1C(=O)[C@H](CC(C)C)NC(=O)[C@@H](N)Cc1ccccc1)C(=O)N[C@@H](CC(C)C)C(=O)N[C@@H](CCCNC(=N)N)C(=O)N[C@@H](CCCCN)C(=O)N[C@H](C(=O)N[C@H](C(=O)N[C@H](C(=O)N[C@@H](C)C(=O)N[C@@H](CC(C)C)C(N)=O)[C@@H](C)O)C(C)C)[C@@H](C)CC [Crabrolin-4K, FLPKILRKIVTAL-NH2] (H-FLPKILRKIVTAL-NH2)
Ans: 23.5

These entries and their values trace back to paper PMC10572522.
